tested on: HT-29; assay: NCI tumour cell line growth inhibition, 48 h
Calls of active or inactive are those of the source. Cut-off read from the data, not from the text of the source: active = GI50 up to about 1.1 µM and inactive = higher.
Outcomes: 1 = active, 0 = inactive

COMPOUND: COc1cc(OC)cc(Oc2nc3cc(F)c(F)cc3nc2-c2ccccc2)c1
ANSWER LABEL: 0
--
COMPOUND: C=C1C(=O)O[C@@H]2C(=O)[C@@H](C)[C@@H]3C=CC(=O)[C@@]3(C)[C@@H](OC(=O)/C(C)=C\C)[C@H]12
ANSWER LABEL: 1
--
COMPOUND: CC12CC(=O)OC(Cc3ccccc31)O2 (stereo not given)
ANSWER LABEL: 0
--
COMPOUND: Nc1c(-c2cn(Cc3ccccc3)c3ccccc23)[n+]([O-])c2ccccc2[n+]1[O-]
ANSWER LABEL: 0
--
COMPOUND: CC(=O)/N=C1\N/C(=C/c2cc([N+](=O)[O-])ccc2O)CN1C
ANSWER LABEL: 0
--
COMPOUND: COc1ccc2nc3c(C)cc4ccccc4n3c2c1
ANSWER LABEL: 0
--
COMPOUND: O=C(Cc1nc2ccccc2s1)Nc1cccc(C(F)(F)F)c1
ANSWER LABEL: 0
--
COMPOUND: CCOC(=O)[C@@]12C(C)=CC(=O)O[C@]1(C)C1C(=O)NC(=O)C12 (stereo not given in full)
ANSWER LABEL: 0
--
COMPOUND: CNC(=O)NS(=O)(=O)c1ccc(C)cc1.NS(=O)O
ANSWER LABEL: 0
--
COMPOUND: COC(=O)C1=C(C(=O)OC)SC(=C2SC3=C(SC(=C4SCCS4)S3)S2)S1
ANSWER LABEL: 0

====

system: SK-OV-3; experiment: NCI tumour cell line growth inhibition, 48 h
Activity calls are given as the source filed them. No stated cut-off is given here; in the data, active = GI50 up to about 1.1 µM and inactive = higher.
MEASUREMENT TYPE: GI50

SMILES ENTRY: c1cncc(CSc2ncnc3[nH]cnc23)c1
READOUT VALUE: > 100 µM (inactive)

SMILES ENTRY: O=c1c2cc([N+](=O)[O-])ccc2oc2nc3n(c(=O)c12)CCCS3
READOUT VALUE: > 100 µM (inactive)

SMILES ENTRY: Cc1cc2sc(C)[n+](CCCOS(=O)(=O)[O-])c2cc1C
READOUT VALUE: > 100 µM (inactive)

SMILES ENTRY: COc1ccc(CN2CCC/C=C/CC(Cl)(Cl)C2=O)cc1
READOUT VALUE: 27.9 µM (inactive)

SMILES ENTRY: Cc1[nH]c2ccccc2c1-c1cc(-c2cc(-c3c(C)[nH]c4ccccc34)nc(N)n2)nc(N)n1
READOUT VALUE: > 100 µM (inactive)

====

system: SF-539; assay: NCI tumour cell line growth inhibition, 48 h
The source made the active and inactive calls. Cut-off read from the data, not from the text of the source: active = GI50 up to about 1.1 µM and inactive = higher.
Outcomes: active, inactive

COMPOUND: CCCc1cc2c(cc1O)CC[C@@H]1[C@@H]2CC[C@]2(C)[C@@H](O)CC[C@@H]12
ANSWER LABEL: inactive
//
COMPOUND: C=C1C(=O)O[C@@H]2C(=O)[C@@H](C)[C@@H]3C=CC(=O)[C@@]3(C)[C@@H](OC(=O)/C(C)=C\C)[C@H]12
ANSWER LABEL: inactive
//
COMPOUND: N#Cc1c(N)c2c(c(-c3ccccc3)c1-c1ccccc1)C(=O)N(NC(=S)Nc1ccccc1)C2=O
ANSWER LABEL: inactive
//
COMPOUND: CN1CCN(/C(N)=C(\C#N)C(=O)Nc2ccc(Cl)cc2)CC1
ANSWER LABEL: inactive
//
COMPOUND: Nc1nc(Cl)c(CO)c(NCC2(CO)CC(CCc3ccccc3)C2)n1 (stereo not drawn)
ANSWER LABEL: inactive
//
COMPOUND: C/C(=C\CC[C@]1(C)OC(C)(C)OC1CC/C(C)=C/CO[Si](c1ccccc1)(c1ccccc1)C(C)(C)C)CC/C=C/CO[Si](C)(C)C(C)(C)C (stereo partly drawn)
ANSWER LABEL: inactive
//
COMPOUND: Cc1ccc2sc3cc(=O)cc(C)c-3nc2c1
ANSWER LABEL: inactive
//
COMPOUND: O=C(NCCNCCNCCNC(=O)c1cc(-c2ccccc2)nc2ccccc12)c1cc(-c2ccccc2)nc2ccccc12
ANSWER LABEL: inactive
//
COMPOUND: CC(=O)NC1C(OCc2ccccc2)OC(CO)C(O)C1OC(C)C(=O)NC(C)C(=O)NC(CCC(=O)NCCCCNc1c2ccccc2nc2cccc([N+](=O)[O-])c12)C(N)=O (stereo not drawn)
ANSWER LABEL: active
//
COMPOUND: CN1CN(c2ccccc2)C2(CCN(CC(C)(c3ccc(F)cc3)C3OCCCO3)CC2)C1=O (stereo not drawn)
ANSWER LABEL: inactive
//
COMPOUND: CC(=O)OC1CCn2nnc(CO)c21 (stereo not drawn)
ANSWER LABEL: inactive
//
COMPOUND: CC(=O)O[C@H]1C(=O)[C@@]2(C)[C@H]([C@H](OC(=O)c3ccccc3)[C@]3(O)C[C@H](OC(=O)[C@H](O)[C@@H](NC(=O)C(C)(C)C)c4ccccc4)C(C)=C1C3(C)C)[C@]1(OC(C)=O)CO[C@@H]1C[C@@H]2O
ANSWER LABEL: active
//
COMPOUND: CN(C)/C=N/C1CCC(C(C)(C)C)CC1 (stereo not drawn)
ANSWER LABEL: inactive
//
COMPOUND: O=CN/C=C/c1ccc(O)c(O)c1
ANSWER LABEL: inactive
//
COMPOUND: O=C(O)C1CCCN1Cc1cc2ccccc2c2ccccc12 (stereo not drawn)
ANSWER LABEL: inactive
//
COMPOUND: CCN1/C(=C/C(C)=C/c2sc3ccccc3[n+]2CC)Sc2ccccc21
ANSWER LABEL: active
//
COMPOUND: NC(=O)c1cc2ccccc2o/c1=N/c1ccccc1
ANSWER LABEL: inactive
//
COMPOUND: COc1cccc(C2c3cc4c(cc3OC(N3CCCC3)C2C)OCO4)c1O (stereo not drawn)
ANSWER LABEL: inactive
